Task for the reader: assign each of the following molecules its reported Test C disease control rating.
- System: Zymoseptoria tritici
- method: Test C: wheat leaf blotch control on wheat seedlings
- Assay type: in vivo
- condition_summary: 250 ppm; wheat seedlings; 100 = 100% disease control, 0 = no control
Give bare numbers, in %.

| molecule | result_unit | Test C disease control rating |
| --- | --- | --- |
| COc1ccnc(C(=O)N[C@@H](C)C(=O)OC(C)c2ccc(C3CCCCC3)cc2)c1OCOC(=O)C(C)C (single isomer, unassigned) [Compound 144] | % | 93 |
| COc1ccnc(C(=O)N[C@@H](C)C(=O)OC(C)c2ccccc2Cc2ccccc2)c1O (single isomer, unassigned) [Compound 109] | % | 85 |
| COc1ccnc(C(=O)NC(C)C(=O)OC(C)C2CCC(C(F)(F)F)CC2)c1O (mixture of isomers) [Compound 179] | % | 99 |
| CC(NC(=O)c1cccc(NC=O)c1O)C(=O)OC(C)c1cccc(OC2CCC(C)(C)CC2)c1 (mixture of isomers) [Compound 160] | % | 92 |
| COc1ccnc(C(=O)NC(C)C(=O)OC(C)c2ccc(OC3CCCCC3)cc2)c1O (mixture of isomers) [Compound 53] | % | 22 |

Parameters: items (list). Returns: Test C disease control rating for each item.
1. COc1ccnc(C(=O)NC(C)C(=O)OC(C)C2CCC(C)(C)CC2)c1OC(C)=O (mixture of isomers) [Compound 165]
2. COc1ccnc(C(=O)N[C@@H](C)C(=O)OC(C)C2CCCc3ccccc32)c1O (single isomer, unassigned) [Compound 183]
3. CCC(OC(=O)[C@H](C)NC(=O)c1nccc(OC)c1OCOC(C)=O)c1ccc(C2CCCCC2)cc1 (single isomer, unassigned) [Compound 135]
4. COc1ccnc(C(=O)N[C@@H](C)C(=O)OC(C)c2ccc(C3CCCCC3)cc2)c1OC(=O)c1ccccc1 (stereo partly shown) [Compound 136]

Ans.
97
98
81
0

Parameter requested: Test C disease control rating. Apply to each item below.
1. COc1ccnc(C(=O)N[C@@H](C)C(=O)OC(C)c2cccc3ccccc23)c1OC(C)=O (single isomer, unassigned) [Compound 115]
2. COc1ccnc(C(=O)NC(C)C(=O)OC(C)C23CC4CC(CC(C4)C2)C3)c1OC(C)=O (mixture of isomers) [Compound 43]
3. COc1cccc(C(=O)NC(C)C(=O)OC(C)c2ccccc2Cc2ccccc2)c1O (stereo not shown) [Compound 5]
4. COc1ccnc(C(=O)N[C@@H](C)C(=O)OC(C)c2ccccc2Cc2ccc(F)cc2)c1OC(C)=O (single isomer, unassigned) [Compound 11]

Ans.
1: 86; 2: 90; 3: 0; 4: 13

====

- Test system: Zymoseptoria tritici
- method: Test C: wheat leaf blotch control on wheat seedlings
- Format: in vivo
- condition_summary: 250 ppm; wheat seedlings; 100 = 100% disease control, 0 = no control
Threshold rule: Test C disease control rating greater than or equal to 70% is label 1; below that, label 0.

Example entries begin here.
| compound | category |
| --- | --- |
| COc1ccnc(C(=O)N[C@@H](C)C(=O)OC(C)c2ccccc2Oc2ccccc2)c1O (single isomer, unassigned) [Compound 105] | label 0 |
| COc1ccnc(C(=O)N[C@@H](C)C(=O)OC(C)c2ccc(C3CCCCC3)cc2)c1OCOC(=O)C(C)C (single isomer, unassigned) [Compound 145] | label 1 |
| COc1ccnc(C(=O)NC(C)C(=O)OC(C)c2ccc(F)cc2Oc2ccccc2)c1O (mixture of isomers) | label 1 |
| CCOC(=O)c1cnn(-c2ccc(C(C)OC(=O)C(C)NC(=O)c3nccc(OC)c3O)cc2)c1 (mixture of isomers) | label 0 |

Qu. hey, is Test C disease control rating for this one >= 70%? COc1cccc(C(=O)NC(C)C(=O)OC(C)C2CCCCC2)c1O (mixture of isomers)
Ans. label 0

Cited source for all entries: patent US20230131966A1
